Data provenance: patent US20090082456A1

A collection of molecules and their measured % Inh
# Test system: soluble epoxide hydrolase (sEH)
# experiment.description: Fluorescent assay for mouse and human soluble epoxide hydrolase (CMNPC substrate)
# Format: biochemical
# condition.description: Conc 200 nM
Could you write the number and then its unit?

O=C(NC1CCC(NS(=O)(=O)c2cccc(C(F)(F)F)c2)CC1)NC12CC3CC(CC(C3)C1)C2 (centres unmarked) [Compound 1] = 98%

Query: Quick one: % Inh for O=C(Nc1ccc(F)cc1)NC1CCC(NS(=O)(=O)c2cccc(C(F)(F)F)c2)CC1 (centres unmarked) [Compound 3] ?
Reply: 98%

Query: Quick one: % Inh for CS(=O)(=O)NC1CCC(NC(=O)NC23CC4CC(CC(C4)C2)C3)CC1 (centres unmarked) [Compound 5] ?
Reply: 96%

Query: Quick one: % Inh for CS(=O)(=O)NC1CCC(NC(=O)Nc2ccc(C(F)(F)F)cc2)CC1 (centres unmarked) [Compound 6] ?
Reply: 99%

Query: Quick one: % Inh for CC(=O)NC1CCC(NC(=O)Nc2ccc(C(F)(F)F)cc2)CC1 (centres unmarked) [Compound 4] ?
Reply: 93%

----------
A collection of molecules and their measured melting point

These solved cases illustrate the format of a correct answer.
O=C(NC1CCC(NS(=O)(=O)c2cccc(C(F)(F)F)c2)CC1)NC12CC3CC(CC(C3)C1)C2 (stereo not drawn) = 310 to 312 °C
CS(=O)(=O)NC1CCC(NC(=O)c2ccc(F)cc2)CC1 (stereo not drawn) = 269 to 270 °C
CC(=O)NC1CCC(NC(=O)NC23CC4CC(CC(C4)C2)C3)CC1 (stereo not drawn) = > 300 °C
O=C(Nc1ccc(F)cc1)NC1CCC(NS(=O)(=O)c2cccc(C(F)(F)F)c2)CC1 (stereo not drawn) = 296 to 299 °C
CS(=O)(=O)NC1CCC(NC(=O)NC23CC4CC(CC(C4)C2)C3)CC1 (stereo not drawn) = > 300 °C

# evaluate next
Query: Quick one: melting point for CS(=O)(=O)NC1CCC(NC(=O)Nc2ccc(C(F)(F)F)cc2)CC1 (stereo not drawn) ?
Reply: 237 to 239 °C
